assay: NCI Yeast Anticancer Drug Screen. Data for the sgs1 strain (AID 173);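 further: 0% = growth of vehicle-only control cultures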; settings: S. cerevisiae sgs1 mutant, at 100.0 µM, active compounds read high
The panel holds about 79,000 compounds, 15% with a hit somewhere; the sample as a whole holds those more often. Calls of active or inactive are those of the source. No stated cut-off is given here; in the data, active means growth inhibition above about 70%; inactive means the rest.
Reported growth inhibition values for a set of compounds

O=C1C2C=CC1C1C(=O)OC(=O)C21 (configuration not stated) ... -39% (inactive)
C=C(CN(C)C)C(=O)c1cc(C)ccc1C ... 99% (active)
CCN(CC)CC[n+]1ccc2c(C)c3[nH]c4ccc(O)cc4c3c(C)c2c1 ... 31% (inactive)
CSc1nc(=S)[nH]c2c1c(C)nn2-c1ccccc1 ... 39% (inactive)
CC(=O)OCC(=O)C1(O)CCC2C3CCC4CCCCC4(C)C3CCC21C (configuration not stated) ... 79% (active)
CCCCCCCCCCCCCCCCCCOCC(O)COP(=O)(O)OCC1OC(n2cc(F)c(=O)[nH]c2=O)CC1O (configuration not stated) ... 97% (active)
O=C(O)CNc1ccc(Cl)c(Cl)c1 ... 98% (active)
NC1=NS(=O)(=O)N=C(N)C1=Cc1ccc([N+](=O)[O-])o1 ... 98% (active)

QUERY: Quote growth inhibition reported for O=C1C2CC[C@@H]3C(=O)C(Cl)(Cl)[C@@H]3CCC2C1(Cl)Cl (some centres not stated) please.
RESULT: 53% (inactive)

QUERY: Note down growth inhibition recorded for c1ccc2c(c1)sc1cc3ccncc3cc12
RESULT: 97% (active)

QUERY: Give the reported growth inhibition for this compound. CN(N=O)N1C(=O)SCC(c2ccccc2)(c2ccccc2)C1=O
RESULT: 35% (inactive)

---

test: NCI Yeast Anticancer Drug Screen. Data for the wt1 strain (AID 149);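 further: 0% = growth of vehicle-treated wt1 cultures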; details: S. cerevisiae wt1 strain (SPY 50644) growth inhibition; at 33.0 µM; active compounds read high
About 79,000 compounds went through this panel and 15% of them were active in at least one assay; those are over-represented in the sample as a whole.
Values of growth inhibition greater than or equal to 20% map to satisfied; values below map to not satisfied.

Take a look at these entries with their results.
N#Cc1c(N)[nH]c2ccc(Sc3ccccc3)cc12 ... satisfied
O=C1C2C(C(=O)N1c1ccc(OCc3ccccc3)cc1)C1c3ccccc3C2C2CCCCN21 (stereo not drawn) ... not satisfied
O=S(=O)(CCCl)c1ccccc1Cl ... satisfied
Cc1ccc2[nH]c3c(C)c4cc[n+](C)cc4c(C)c3c2c1 ... not satisfied
c1ccc2c(c1)Oc1cccc3cccc-2c13 ... not satisfied
CSC(=S)N/N=C(\C)c1cccc(C)n1 ... not satisfied
[N-]=N[N+]#I1OC(C(F)(F)F)(C(F)(F)F)c2ccccc21 ... satisfied
Cn1c2ccccc2c(=O)c2cc(NC(=O)CCCCC(=O)Nc3ccc4c(c3)c(=O)c3ccccc3n4C)ccc21 ... not satisfied

QUERY: Determine whether this compound has growth inhibition no lower than 20%: COc1ccccc1C(=O)OCC1CCCN2CCCCC12 (stereo not drawn)
RESULT: satisfied

---

Test: NCI Yeast Anticancer Drug Screen. Data for the rad52 strain (AID 147);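 further: 0% = growth of vehicle-treated control cultures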
Conditions: S. cerevisiae rad52 mutant growth inhibition; at 1.2 µM; active compounds read high
Method: Growth inhibition of yeast strains with defined genetic alterations is measured as a screen for potential anti-cancer activity. Selected strains with alterations in DNA damage repair or cell cycle control were exposed to compounds and growth inhibition was measured relative to vehicle treated controls. The strain used in this assay is rad52
The panel holds about 79,000 compounds, 15% with a hit somewhere; the sample as a whole holds those more often.
Experimental endpoint: growth inhibition (%)
Your answer is read as %, so omit the unit and give the number.

C/C(=N/NC(=S)N1CCCCCC1)c1cccc(/C(C)=N\NC(=S)N2CCCCCC2)n1 ... 19
CC(C)(Br)C(=O)/C=C/c1ccc(Cl)c(Cl)c1 ... 2
CSC(=S)Nc1cccc(C)n1 ... -6

QUERY: Tell us which growth inhibition value is on record for CCC[CH2][Ge]([CH2]CCC)([CH2]CCC)[O]C(=O)C(OC)c1ccccc1 (configuration not stated)
RESULT: 0

QUERY: Name the recorded growth inhibition of the item CCCCN(CCCC)CCSc1ccc(Cl)cc1 in your answer.
RESULT: -6

QUERY: Give growth inhibition for the following compound: O=C(N=Nc1ccccc1Cl)NNc1ccccc1Cl
RESULT: 25

QUERY: Identify measured growth inhibition associated with CN(N=O)N1C(=O)SCC(c2ccccc2)(c2ccccc2)C1=O
RESULT: -2

QUERY: // Input: CCC(C)COC(=O)c1ccc(N=Cc2ccc(C=Nc3ccc(C(=O)OCC(C)CC)cc3)cc2)cc1 (configuration not stated) . Output its growth inhibition only.
RESULT: -2

QUERY: Identify growth inhibition associated with the compound BrCC[P+](c1ccccc1)(c1ccccc1)c1ccccc1
RESULT: -39

QUERY: Give the reported growth inhibition for this compound. CN(CCc1ccccn1)c1ccc2c(c1)Cc1ccccc1-2
RESULT: 1

QUERY: Using the record for CCN(CC)CCC(=O)c1ccc(Oc2ccc(F)cc2)cc1 , state its measured growth inhibition.
RESULT: -23

QUERY: Specify growth inhibition for OC(COc1cccc2ccccc12)CN1CCOCC1 (configuration not stated) and stop.
RESULT: 15

QUERY: Give the measured growth inhibition for CC1CCN(CCC(=O)c2ccc(Cl)cc2)CC1
RESULT: 4

QUERY: Please report the measured growth inhibition for Nc1ncncc1C(C1=C(O)COC1=O)C1=C(O)COC1=O
RESULT: 2

---

assay: NCI Yeast Anticancer Drug Screen. Data for the sgs1 strain (AID 173);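 further: 0% = growth of vehicle-only control cultures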; conditions: S. cerevisiae sgs1 mutant, at 1.2 µM, active compounds read high
This is part of a sample that, as a whole, favours compounds with a hit. Of some 79,000 tested, about 15% had one in any assay.
Below is a list of entries, each paired with its recorded growth inhibition value.
Supply the numeric figure in %, leaving out any unit text.

These solved cases illustrate the format of a correct answer.
O=C(NNc1ccnc2cc(Cl)ccc12)/C(=C\c1ccccc1Cl)NC(=O)c1ccccc1 ... 1
CC(=O)SCCC[Si](C)(C)CCCSC(C)=O ... -2
CC(C)[N+]([O-])(CCCNc1c2ccccc2nc2cccc([N+](=O)[O-])c12)C(C)C ... 64

QUERY: Output measured growth inhibition for this item: CCCCCCCCCCCC(=O)N(C)C
RESULT: -18

QUERY: Please report the measured growth inhibition for Cc1ccc(N)c(S)c1
RESULT: -29

QUERY: Read off the recorded growth inhibition for O=C(/C=C\c1ccc(Cl)cc1Cl)c1cccs1
RESULT: 0

QUERY: Please look at this compound and report its growth inhibition: Cc1ccc(-n2cc(-c3ccc(Cl)cc3)c(C#N)c2N)cc1
RESULT: -2

---

Assay: NCI Yeast Anticancer Drug Screen. Data for the CLN2oe strain (AID 163);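 further: 0% = growth of vehicle-only control cultures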
Settings: S. cerevisiae CLN2oe strain, at 1.2 µM, active compounds read high
Experimental: Growth inhibition of yeast strains with defined genetic alterations is measured as a screen for potential anti-cancer activity. Selected strains with alterations in DNA damage repair or cell cycle control were exposed to compounds and growth inhibition was measured relative to vehicle treated controls. The strain used in this assay is CLN2oe
This is part of a sample that, as a whole, favours compounds with a hit. Of some 79,000 tested, about 15% had one in any assay.
Entries and their measured growth inhibition follow.
Numeric only. Scale: %

// below: answered compounds
O=C(NCCCCNCCCNC(=O)c1cc(-c2ccccc2)nc2ccccc12)c1cc(-c2ccccc2)nc2ccccc12 ... 1
O=[N+]([O-])c1ccc([N+]2=NC(c3ccccc3)=NN(c3ccccc3)C2)cc1 ... -5
COc1cc(C2SCC(=O)N2c2ccc(-c3ccc(-n4c(-c5ccccc5)nc5ccccc5c4=O)cc3)cc2)cc(OC)c1OC (stereo unspecified) ... 5
C(=C\c1ccccc1)/COc1ccccc1C(N1CCOCC1)n1nc2ccccc2n1 (stereo unspecified) ... 0
Nc1nc(Cl)c(Cl)c(Cl)n1 ... -1
COC(=O)C1=C(C(=O)OC)C2(C)C=CC1O2 (stereo unspecified) ... -7

QUERY: Provide only the value of recorded growth inhibition for O=C(NCCCNCCCNC(=O)c1cc(-c2ccccc2)nc2ccccc12)c1cc(-c2ccccc2)nc2ccccc12
RESULT: -3

QUERY: Entry COc1ccc2nc3cccc([N+](=O)[O-])c3c(NCCN(CCO)CCO)c2c1 needs its growth inhibition filled in; supply it.
RESULT: -5

---

Test: NCI Yeast Anticancer Drug Screen. Data for the mlh1 rad18 strain (AID 175)
Settings: S. cerevisiae mlh1 rad18 strain growth inhibition; at 50.0 µM (retest, dose inferred, filed as 5.0); active compounds read high
Procedure: Growth inhibition of yeast strains with defined genetic alterations is measured as a screen for potential anti-cancer activity. Selected strains with alterations in DNA damage repair or cell cycle control were exposed to compounds and growth inhibition was measured relative to vehicle treated controls. The strain used in this assay is mlh1 rad18
Compounds without any hit were thinned out: in the full panel of roughly 79,000, 15% have a hit.
Experimental endpoint: growth inhibition (%)
// note: answer is a bare numeric in %

For orientation, consider the following solved cases.
Cc1nc(-c2ccccc2)c(-c2ccccc2)s1 ... 100
Cc1ccc(CCC2=CCCc3c2ccc2ccccc32)cc1 ... 16
N#CN1C2CCC1CC(=O)C2 ... 100
O=C1C=CC(=O)c2c(O)c(Nc3ccc(OC(F)(F)F)cc3)c(Cl)c(O)c21 ... 76
O=C1C(=O)c2ccccc2C=C1[N+](=O)[O-] ... 64
CC1C(NNc2ccccc2)Oc2cc3c(cc2C1c1ccccc1O)OCO3 (configuration not stated) ... 98
CC(=O)Oc1cc(-c2cc(OC(C)=O)c(OC(C)=O)c3ccccc23)c2ccccc2c1OC(C)=O ... 96
Nc1nc(Cl)c(Cl)c(Cl)n1 ... 99
CCN(CC)[P+](c1ccccc1O)(N(CC)CC)N(CC)CC ... 74
OC(c1ccc(F)cc1)(c1ccc(F)cc1)C1CC1 ... 100

QUERY: Please give the documented growth inhibition of CC(=O)OCC(=O)C1(O)CCC2C3CCC4CCCCC4(C)C3CCC21C (configuration not stated)
RESULT: 80

QUERY: Look up and state reported growth inhibition for CC(=O)Cc1ccc[cH-]1.[Fe+2].c1cc[cH-]c1
RESULT: 68
